- TARGET_SYSTEM: UniProt:P10980
- Sequence (P10980 whole entry): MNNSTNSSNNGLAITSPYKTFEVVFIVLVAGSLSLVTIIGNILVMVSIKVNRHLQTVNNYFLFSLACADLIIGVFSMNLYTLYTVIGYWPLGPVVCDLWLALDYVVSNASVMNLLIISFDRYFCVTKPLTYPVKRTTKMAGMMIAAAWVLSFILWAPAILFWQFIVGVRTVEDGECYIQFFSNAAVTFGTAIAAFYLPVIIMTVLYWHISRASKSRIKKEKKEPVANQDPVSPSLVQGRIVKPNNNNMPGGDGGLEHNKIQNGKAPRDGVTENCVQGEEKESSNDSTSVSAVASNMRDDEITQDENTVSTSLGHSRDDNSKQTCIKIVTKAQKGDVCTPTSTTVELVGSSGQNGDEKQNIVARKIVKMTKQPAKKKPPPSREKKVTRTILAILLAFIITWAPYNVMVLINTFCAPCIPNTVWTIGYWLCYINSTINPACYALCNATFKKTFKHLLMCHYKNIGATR
Where a name gives a salt, the structure may show the parent alone.
Criterion: Ki strictly less than 300 nM. Met: criterion met. Not met: criterion not met.

Completed entries (count: 3):
{"columns": ["MOLECULE", "CAT"],
 "data": [
  ["CN[C@@H]1CC[C@@H](c2ccc(Cl)c(Cl)c2)c2ccccc21", "criterion not met"],
  ["CN(C)CCCC1(c2ccc(F)cc2)OCc2cc(C#N)ccc21 (stereo not given) [CITALOPRAM HYDROBROMIDE]", "criterion not met"],
  ["CN(C)CCC=C1c2ccccc2CCc2ccccc21", "criterion met"]
]}

Answer whether the molecule CN(C)CCC=C1c2ccccc2CSc2ccccc21 has Ki strictly less than 300 nM
criterion met
